Values from ChEMBL document CHEMBL4196070

- target: Acetylcholinesterase (Electrophorus electricus)
- Sequence (O42275 whole entry): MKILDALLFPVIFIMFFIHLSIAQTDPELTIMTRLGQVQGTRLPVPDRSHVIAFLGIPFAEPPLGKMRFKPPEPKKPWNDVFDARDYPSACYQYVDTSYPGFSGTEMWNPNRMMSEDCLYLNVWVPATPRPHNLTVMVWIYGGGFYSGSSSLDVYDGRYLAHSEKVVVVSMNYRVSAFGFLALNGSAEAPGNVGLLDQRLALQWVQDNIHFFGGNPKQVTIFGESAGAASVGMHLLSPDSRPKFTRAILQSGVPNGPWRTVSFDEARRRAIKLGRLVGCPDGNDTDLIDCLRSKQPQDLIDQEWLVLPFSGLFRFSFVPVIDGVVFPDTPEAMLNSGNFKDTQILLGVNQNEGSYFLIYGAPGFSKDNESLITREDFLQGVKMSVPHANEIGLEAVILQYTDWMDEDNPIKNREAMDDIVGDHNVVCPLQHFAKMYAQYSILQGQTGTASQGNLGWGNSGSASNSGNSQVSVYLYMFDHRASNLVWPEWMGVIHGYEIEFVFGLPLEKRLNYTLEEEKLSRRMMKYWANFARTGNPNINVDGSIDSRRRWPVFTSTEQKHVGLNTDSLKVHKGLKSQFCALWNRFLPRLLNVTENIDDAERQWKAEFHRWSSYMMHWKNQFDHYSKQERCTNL
pIC50: −log10 of the molar value.
The following compounds are listed with their measured pIC50 values.
outcome-measure: pIC50

compound	limit-sign	readout-value
CCCS(=O)(=O)N1CC(=O)N(S(=O)(=O)CCC)CC1=O	<	6.70
Nc1ccc(S(=O)(=O)N2CC(=O)N(S(=O)(=O)c3ccc(N)cc3)CC2=O)cc1	=	7.06
O=C1C(c2ccccc2)N(S(=O)(=O)c2cccc(Br)c2)C(=O)C(c2ccccc2)N1S(=O)(=O)c1cccc(Br)c1 (stereo not drawn)	=	7.12
Cc1ccc(S(=O)(=O)N2CC(=O)N(S(=O)(=O)c3ccc(C)cc3)CC2=O)cc1	=	6.93
O=C1C(c2ccccc2)N(S(=O)(=O)c2ccc(O)cc2)C(=O)C(c2ccccc2)N1S(=O)(=O)c1ccc(O)cc1 (stereo not drawn)	=	7.07
O=C1C(Cc2ccccc2)N(S(=O)(=O)c2cccc(Br)c2)C(=O)C(Cc2ccccc2)N1S(=O)(=O)c1cccc(Br)c1 (stereo not drawn)	=	7.11
O=C1CN(S(=O)(=O)c2ccc(Br)cc2)C(=O)CN1S(=O)(=O)c1ccc(Br)cc1	=	7.09
Nc1ccc(S(=O)(=O)N2C(=O)C(c3ccccc3)N(S(=O)(=O)c3ccc(N)cc3)C(=O)C2c2ccccc2)cc1 (stereo not drawn)	=	7.04
